- EXPERIMENTAL_DETAILS: AUC in BALB/c mouse at 4 mg/kg, po measured upto 72 hrs
- Format: ADME, organism-based
- Design: route oral, dose 4 mg/kg, time <=72
- CONDITION: in vivo
RECORDED_METRIC: AUC at 72 h
Number plus unit, in that order.

Task item: Suppose we examine the compound CC(C)(O)CN1C(=O)[C@H](F)C[C@H]1C(=O)N1CC[C@@]2(S(=O)(=O)c3ccc(F)cc3)c3ccc(C(F)(C(F)(F)F)C(F)(F)F)cc3CC[C@@H]12 ; what AUC at 72 h value has been reported?
Reply: 43.9 µM·h

* * *

- EXPERIMENTAL_DETAILS: Drug concentration in IL-23 induced acanthosis in C57BL/6 mouse measured as (3R,5S)-3-Fluoro-5-((3aR,9bR)-9b-((4-fluorophenyl)sulfonyl)-7-(perfluoropropan-2-yl)-2,3,3a,4,5,9b-hexahydro-1H-benzo[e]indole-3-carbonyl)-1-(2-hydroxy-2-methylpropyl)pyrrolidin-2-one at 5 mg/kg, po qd administered for 2 hrs before IL-23 injection measured on day 1
- Assay type: ADME, organism-based
- CONDITION: in vivo, 24 h, time 1 day, read-out: Ct
RECORDED_METRIC: concentration (nM)
Give just the number in nM; leave the unit off.

Task item: Suppose we examine the compound CC(C)(CN1C(=O)[C@H](F)C[C@H]1C(=O)N1CC[C@@]2(S(=O)(=O)c3ccc(F)cc3)c3ccc(C(F)(C(F)(F)F)C(F)(F)F)cc3CC[C@@H]12)OP(=O)(O)O ; what concentration value has been reported?
Reply: 210

* * *

- TARGET_OR_SYSTEM: Cytochrome P450 2C19 (Homo sapiens)
- Sequence (P33261 whole entry): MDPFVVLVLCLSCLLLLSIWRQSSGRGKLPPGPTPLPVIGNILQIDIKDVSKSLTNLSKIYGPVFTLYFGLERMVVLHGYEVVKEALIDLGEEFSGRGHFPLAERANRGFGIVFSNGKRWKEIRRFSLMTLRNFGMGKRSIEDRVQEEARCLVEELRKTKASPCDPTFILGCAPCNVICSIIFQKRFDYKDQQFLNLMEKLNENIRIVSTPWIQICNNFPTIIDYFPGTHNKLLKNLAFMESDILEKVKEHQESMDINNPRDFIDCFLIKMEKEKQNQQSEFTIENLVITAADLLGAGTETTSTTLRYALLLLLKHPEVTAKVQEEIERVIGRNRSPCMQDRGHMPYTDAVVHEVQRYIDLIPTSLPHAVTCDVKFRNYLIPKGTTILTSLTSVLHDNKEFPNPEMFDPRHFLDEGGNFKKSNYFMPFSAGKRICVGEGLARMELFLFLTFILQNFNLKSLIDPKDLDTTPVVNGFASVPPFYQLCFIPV
pIC50: −log10 of the molar value.
RECORDED_METRIC: pIC50

Task item: API: value(readout=pIC50, system=Cytochrome P450 2C19 (Homo sapiens)) for record CC(C)(O)CN1C(=O)[C@H](F)C[C@H]1C(=O)N1CC[C@@]2(S(=O)(=O)c3ccc(F)cc3)c3ccc(C(F)(C(F)(F)F)C(F)(F)F)cc3CC[C@@H]12
Reply: < 4.70

* * *

- TARGET_OR_SYSTEM: Nuclear receptor subfamily 1 group I member 2 (Homo sapiens, UniProt O75469)
- Sequence (O75469 whole entry): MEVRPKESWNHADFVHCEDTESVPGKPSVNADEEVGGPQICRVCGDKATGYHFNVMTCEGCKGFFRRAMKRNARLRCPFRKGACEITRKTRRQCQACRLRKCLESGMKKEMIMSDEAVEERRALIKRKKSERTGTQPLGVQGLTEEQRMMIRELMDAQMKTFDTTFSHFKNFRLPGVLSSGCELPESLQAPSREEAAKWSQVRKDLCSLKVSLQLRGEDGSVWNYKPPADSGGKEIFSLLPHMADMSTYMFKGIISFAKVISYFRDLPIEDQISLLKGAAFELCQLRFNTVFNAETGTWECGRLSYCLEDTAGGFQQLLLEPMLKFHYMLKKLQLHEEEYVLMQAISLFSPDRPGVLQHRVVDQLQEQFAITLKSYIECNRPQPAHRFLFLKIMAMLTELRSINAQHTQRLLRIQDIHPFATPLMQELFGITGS
- EXPERIMENTAL_DETAILS: Inverse agonist activity at PXR (unknown origin)
pEC50: −log10 of the molar value.
RECORDED_METRIC: pEC50

Task item: Suppose we examine the compound CC(C)(O)CN1C(=O)[C@H](F)C[C@H]1C(=O)N1CC[C@@]2(S(=O)(=O)c3ccc(F)cc3)c3ccc(C(F)(C(F)(F)F)C(F)(F)F)cc3CC[C@@H]12 ; what pEC50 value has been reported?
Reply: < 4.30
